- Tested on: CCND1
- test.summary: In vitro transcription-translation (IVTT) assay, CCND1 reporter
- Assay type: biochemical
- experimental.conditions: HeLa S3 lysate, sfGFP/mCherry ratio, 2 hrs at 30° C.
- Description: All reporter constructs have been cloned into the pT7CFE1-CHis plasmid (ThermoFisher #88860) using Gibson assembly procedures (NEB #E2611L). […] All reporters are designed to be inserted at the MCS to include a red fluorescent protein (mCherry), P2A self-cleaving peptide which releases the preceding mCherry protein product, and a fusion open reading frame containing a 3×FLAG epitope, a peptide sequence of interest (TEST), and green fluorescent protein (sfGFP). […]
pIC50: −log10 of the molar value.
readout.type: pIC50

- compound: "COc1ccc(C[C@H]2NC[C@H](O)[C@H]2OC(=O)NCCc2ccncc2C#N)cc1 [V187940]"
  experimental.system: "CCND1"
  readout.type: "pIC50"
  result: "> 5.00"
- compound: "COc1ccc(C[C@H]2NC[C@H](O)[C@H]2OC(=O)NCCn2cnc3ccccc32)cc1 [V188090]"
  experimental.system: "CCND1"
  readout.type: "pIC50"
  result: "< 4.52"
- compound: "COc1ccc(C[C@H]2NC[C@H](O)[C@H]2OC(=O)NC[C@H]2CCCNC2)cc1 [V187930]"
  experimental.system: "CCND1"
  readout.type: "pIC50"
  result: "4.52 to 4.70"
- compound: "COc1ccc(C[C@H]2NC[C@H](O)[C@H]2OC(=O)NCc2cccc(-c3ccccc3)c2)cc1 [V187982]"
  experimental.system: "CCND1"
  readout.type: "pIC50"
  result: "< 4.52"
- compound: "COc1ccc(C[C@H]2NC[C@H](O)[C@H]2OC(=O)NC[C@@H]2CCN(C)C2)cc1 [V188109]"
  experimental.system: "CCND1"
  readout.type: "pIC50"
  result: "< 4.52"
- compound: "COc1ccc(C[C@H]2NC[C@H](O)[C@H]2OC(=O)Nc2ncc[nH]2)cc1 [V187755]"
  experimental.system: "CCND1"
  readout.type: "pIC50"
  result: "> 5.00"
- compound: "COc1ccc(C[C@H]2NC[C@H](O)[C@H]2OC(=O)NCCc2cn[nH]c2)cc1 [V187509]"
  experimental.system: "CCND1"
  readout.type: "pIC50"
  result: "> 5.00"
- compound: "COc1ccc(C[C@H]2NC[C@H](O)[C@H]2OC(=O)NCc2ncc[nH]2)cc1 [V187815]"
  experimental.system: "CCND1"
  readout.type: "pIC50"
  result: "4.70 to 5.00"

* * *

Catalogue of compounds with associated pIC50
- Tested on: CCND1
- test.summary: In vitro transcription-translation (IVTT) assay, CCND1 reporter
- Assay type: biochemical
- experimental.conditions: HeLa S3 lysate, sfGFP/mCherry ratio, 2 hrs at 30° C.
pIC50: −log10 of the molar value.
readout.type: pIC50

- compound: "COc1ccc(C[C@H]2NC[C@H](O)[C@H]2OC(=O)NCCNc2ncc[nH]2)cc1"
  result: "4.70 to 5.00"
- compound: "[H]/N=C(/N)c1cccc(CNC(=O)O[C@@H]2[C@@H](O)CN[C@@H]2Cc2ccc(OC)cc2)c1"
  result: "> 5.00"
- compound: "COc1ccc(C[C@H]2NC[C@H](O)[C@H]2OC(=O)NCc2c[nH]cn2)cc1"
  result: "> 5.00"
- compound: "COC1CCC(CC2NCC(O)C2OC(O)NCCOCC2CNNN2)CC1 (stereo not drawn)"
  result: "4.52 to 4.70"
- compound: "COc1ccc(C[C@H]2NC[C@H](O)[C@H]2OC(=O)NC[C@@H]2CCCO2)cc1"
  result: "> 5.00"
- compound: "COc1ccc(C[C@H]2NC[C@H](O)[C@H]2NC(=O)OCc2ccccc2)cc1"
  result: "< 4.52"
- compound: "COc1ccc(C[C@H]2NC[C@H](O)[C@H]2OC(=O)NCCNc2ccccn2)cc1"
  result: "4.70 to 5.00"
- compound: "COc1ccc(C[C@H]2NC[C@H](O)[C@H]2OC(=O)NCc2cccnn2)cc1"
  result: "> 5.00"
- compound: "C#CCNC(=O)O[C@@H]1[C@@H](O)CN[C@@H]1Cc1ccc(OC)cc1"
  result: "> 5.00"
- compound: "COc1ccc(C[C@H]2NC[C@H](O)[C@H]2OC(=O)NCc2ccnc(OC)c2)cc1"
  result: "> 5.00"
- compound: "COc1ccc(C[C@H]2NC[C@H](O)[C@H]2OC(=O)NCc2cc(Cl)[nH]n2)cc1"
  result: "> 5.00"
- compound: "COc1ccc(C[C@H]2NC[C@H](O)[C@H]2OC(=O)NCc2nc(Cl)c(Cl)[nH]2)cc1"
  result: "< 4.52"
- compound: "COc1ccc(C[C@H]2NC[C@H](O)[C@H]2OC(=O)NC[C@H]2CNC[C@H]2O)cc1"
  result: "< 4.52"
- compound: "COc1ccc(C[C@H]2NC[C@H](O)[C@H]2OC(=O)NCCN2CC(O)(C#N)C2)cc1"
  result: "4.52 to 4.70"
- compound: "COc1ccc(C[C@H]2NC[C@H](O)[C@H]2OC(=O)NCc2cc(C(F)(F)F)[nH]n2)cc1"
  result: "4.52 to 4.70"
- compound: "COc1ccc(C[C@H]2NC[C@H](O)[C@H]2OC(=O)NCC2CC(F)(F)C2)cc1"
  result: "> 5.00"
- compound: "COc1ccc(C[C@H]2NC[C@H](O)[C@H]2OC(=O)NCCN[C@@H]2CCNC2)cc1"
  result: "4.52 to 4.70"
- compound: "COc1ccc(C[C@H]2NC[C@H](O)[C@H]2OC(=O)NCCc2ncc[nH]2)cc1"
  result: "< 4.52"
- compound: "COc1ccc(C[C@H]2NC[C@H](O)[C@H]2OC(=O)NCc2cnc(N)nc2)cc1"
  result: "> 5.00"
- compound: "COc1ccc(C[C@H]2NC[C@H](O)[C@H]2OC(=O)NCCc2ncc(C)[nH]2)cc1"
  result: "< 4.52"
- compound: "O=C(NCCc1ccncc1)O[C@@H]1[C@@H](O)CN[C@@H]1Cc1ccc(-c2cn(Cc3cn[nH]c3)nn2)cc1"
  result: "> 5.00"
- compound: "O=C(NCCc1ccncc1)O[C@@H]1[C@@H](O)CN[C@@H]1Cc1ccc(-c2cn(-c3ccc(Cl)cc3)nn2)cc1"
  result: "> 5.00"
- compound: "CNC(=O)CNC(=O)O[C@@H]1[C@@H](O)CN[C@@H]1Cc1ccc(OC)cc1"
  result: "4.70 to 5.00"
- compound: "COc1ccc(C[C@H]2NC[C@H](O)[C@H]2OC(=O)NCCNc2nccs2)cc1"
  result: "4.52 to 4.70"
- compound: "COc1ccc(C[C@H]2NC[C@H](O)[C@H]2OC(=O)NCCc2cc(C)on2)cc1"
  result: "> 5.00"
- compound: "COc1ccc(C[C@H]2NC[C@H](O)[C@H]2OC(=O)NC[C@@H]2CNC[C@@H]2O)cc1"
  result: "< 4.52"
- compound: "COc1ccc(C[C@H]2NC[C@H](O)[C@H]2OC(=O)NCc2ccn[nH]2)cc1"
  result: "> 5.00"
- compound: "[H]/N=C(\\N)CNC(=O)O[C@@H]1[C@@H](O)CN[C@@H]1Cc1ccc(OC)cc1"
  result: "4.70 to 5.00"
- compound: "COc1ccc(C[C@H]2NC[C@H](O)[C@H]2OC(=O)NCCCN)cc1"
  result: "> 5.00"
- compound: "COc1ccc(C[C@H]2NC[C@H](O)[C@H]2OC(=O)NCCNc2cc[nH]n2)cc1"
  result: "> 5.00"
- compound: "COc1ccc(C[C@H]2NC[C@H](O)[C@H]2OC(=O)NCCc2cnc[nH]2)cc1"
  result: "> 5.00"
- compound: "COc1ccc(C[C@H]2NC[C@H](O)[C@H]2OC(=O)NCc2ccc(I)cc2)cc1"
  result: "< 4.52"
- compound: "COc1ccc(C[C@H]2NC[C@H](O)[C@H]2OC(=O)NCCn2ccnc2)cc1"
  result: "> 5.00"
